Source of measurements: patent US20210070872A1

Biological target: T1, purified recombinant human GITR protein (Example 1) (human, UniProt Q9Y5U5 26-162, limits assumed)
T1 construct: also called Hu GITR recomb protein; immobilized huGITR
T1 sequence: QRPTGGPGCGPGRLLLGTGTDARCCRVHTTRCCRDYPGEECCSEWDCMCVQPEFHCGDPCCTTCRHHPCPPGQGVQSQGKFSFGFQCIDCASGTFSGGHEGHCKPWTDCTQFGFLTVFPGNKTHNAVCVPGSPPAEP
Test: SPR (BIAcore), huGITR immobilized on CM5, antibody 6.25-100 nM
Listing of recorded Ka by entry.

{"binder": "mAb 231-1042-7 (murine) (antibody, mouse IgG1, V domains shown, Mouse IgG1 from hybridoma) VH: QVQLLQSGTELVRPGVSVKISCKGSGYTFTDYAMYWVKQSHAKSLEWIGVIRTYSGDVTYNQKFKDKATMTVDKSSSIAYMELARLSSEDSAIYYCAKSGTVRGFAYWGQGTLVTVSS VL: DIVMTQSPSSLTVTAGEKVIMSCKSSQSLLNSGNQKNYLTWYQQKPGQPPKLLIYWASTRESGVPDRFTGSGSGTDFTLTISSVQAEDLAVYHCQNDYSYPYTFGGGTKLEIK", "Ka / M⁻¹": "4.3e+08"}
{"binder": "mAb 231-1333-21 (murine) (antibody, mouse IgG1, V domains shown, Mouse IgG1 from hybridoma) VH: QVQLLQSGTELVRPGVSVKISCKGSGYTFTDYAMYWVKQSHAKSLEWIGVIRTYSGDVTYNQKFKDKATMTVDKSSSIAYMELARLSSEDSAIYYCAKSGTVRGFAYWGQGTLVTVSS VL: DIVMTQSPSSLTVTAGEKVIMSCKSSQSLLNSGNQKNYLTWYQQKPGQPPKLLIYWASTRESGVPDRFTGSGSGTDFTLTISSVQAEDLAVYHCQNDYSYPYTFGGGTKLEIK", "Ka / M⁻¹": "4.19e+08"}
{"binder": "mAb 231-32-15 (murine) (antibody, mouse IgG1, V domains shown, Mouse IgG1 from hybridoma; also called antibody 32-15) VH: QVQLLQSGTELVRPGVSVKISCKGSGYTFTDYAMYWVKQSHAKSLEWIGVIRTYSGDVTYNQKFKDKATMTVDKSSSIAYMELARLSSEDSAIYYCAKSGTVRGFAYWGQGTLVTVSS VL: DIVMTQSPSSLTVTAGEKVIMSCKSSQSLLNSGNQKNYLTWYQQKPGQPPKLLIYWASTRESGVPDRFTGSGSGTDFTLTISSVQAEDLAVYHCQNDYSYPYTFGGGTKLEIK", "Ka / M⁻¹": "4.04e+08"}
{"binder": "mAb 231-1039-45 (murine) (antibody, mouse IgG1, V domains shown, Mouse IgG1 from hybridoma) VH: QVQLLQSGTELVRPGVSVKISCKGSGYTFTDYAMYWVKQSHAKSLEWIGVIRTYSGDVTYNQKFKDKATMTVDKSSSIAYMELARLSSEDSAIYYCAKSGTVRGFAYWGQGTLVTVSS VL: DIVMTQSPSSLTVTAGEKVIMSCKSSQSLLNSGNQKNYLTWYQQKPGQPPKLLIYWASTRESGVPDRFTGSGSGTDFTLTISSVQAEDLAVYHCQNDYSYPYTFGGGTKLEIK", "Ka / M⁻¹": "4.2e+08"}
